Assign Toxicity Assay % Fluor to each entry below.
- System: Clone V cells
- assay-explanation: CellTiter Blue (CTB) cell viability counter-screen
- condition-details: CC_NCI screening; CTB cell viability fluorescence; normalized to on-plate 0.3% DMSO controls
Structures can show the parent of a compound that is named as a salt.
Numbers only, in %.

# annotated cases, reported Toxicity Assay % Fluor shown
molecule	Toxicity Assay % Fluor / %
C=C1C[C@@H]2[C@H](CC[C@]3(C)C(=O)CC[C@@H]23)[C@@]2(C)C=CC(=O)C=C12	91.81
C[C@]12O[C@H](C[C@]1(O)CO)n1c3ccccc3c3c4c(c5c6ccccc6n2c5c31)CNC4=O [Lestaurtinib, reference compound]	90.16
CCC1=C[C@@H]2CN(C1)Cc1c([nH]c3ccccc13)[C@@](C(=O)OC)(c1cc3c(cc1OC)N(C)[C@H]1[C@@](O)(C(=O)OC)[C@H](OC(C)=O)[C@]4(CC)C=CCN5CC[C@]31[C@@H]54)C2 [Vinorelbine tartrate]	88.42
CNC(=O)c1cc(Oc2ccc(NC(=O)Nc3ccc(Cl)c(C(F)(F)F)c3)c(F)c2)ccn1	88.66
Oc1ncnc2[nH]ncc12	88.22

Next up:
## Task Reported Toxicity Assay % Fluor, molecule O=C1CCC(N2C(=O)c3ccccc3C2=O)C(=O)N1 (stereo not drawn) [Thalidomide] : ____
## Result 87.53
